Below are molecules with their pKi as measured on Kappa-type opioid receptor (Homo sapiens, UniProt P41145).
Sequence (P41145 whole entry): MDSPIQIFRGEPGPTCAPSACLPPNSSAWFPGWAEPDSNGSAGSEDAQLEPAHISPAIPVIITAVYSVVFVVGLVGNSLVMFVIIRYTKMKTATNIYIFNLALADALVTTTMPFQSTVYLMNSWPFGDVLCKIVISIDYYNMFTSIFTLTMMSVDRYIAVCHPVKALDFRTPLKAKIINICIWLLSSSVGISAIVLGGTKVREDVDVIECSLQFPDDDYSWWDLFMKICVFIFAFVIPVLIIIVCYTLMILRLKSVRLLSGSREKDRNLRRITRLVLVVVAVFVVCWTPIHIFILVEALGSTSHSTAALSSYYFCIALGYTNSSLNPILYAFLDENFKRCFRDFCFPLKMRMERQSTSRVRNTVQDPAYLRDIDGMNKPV
pKi: −log10 of the molar value.
measuredAttribute: pKi

> print(dat)
                    compoundstructurestring  recordedresult
1  COc1ccc2c3c1O[C@H]1C(=O)CC[C@@]4(OC(=O)/C=C/c5ccc(Cl)cc5)[C@@H](C2)N(CC2CC2)CC[C@]314            7.28
2  COc1ccc2c3c1O[C@H]1C(=O)CC[C@@]4(OC(=O)/C=C/c5ccc(C)cc5)[C@@H](C2)N(CC2CC2)CC[C@]314            7.44
3  COc1ccc2c3c1O[C@H]1C(=O)CC[C@@]4(OC(=O)/C=C/c5ccccc5)[C@@H](C2)N(CC2CC2)CC[C@]314            8.37
